Experiment: Permeability coefficient across apical to basolateral side in human Caco-2 cells by HPLC-UV analysis
Measured Property: Papp A→B

Worked cases, answers included:
COc1ccc(Cc2ccccc2O[C@@H]2O[C@H](CO)[C@@H](O)[C@H](O)[C@H]2O)cc1 [SERGLIFLOZIN A]
1.75 ×10⁻⁶ cm/s
O=S1(=O)OC(c2ccc(O)cc2)(c2ccc(O)cc2)c2ccccc21 [PHENOLSULFONPHTHALEIN]
0.35 ×10⁻⁶ cm/s
COc1ccc(Cc2ccc(O[C@@H]3O[C@H](CO)[C@@H](O)[C@H](O)[C@H]3O)cc2)cc1
1.68 ×10⁻⁶ cm/s

Need Papp A→B of COc1ccc(Cc2cccc(O[C@@H]3O[C@H](CO)[C@@H](O)[C@H](O)[C@H]3O)c2)cc1 , thanks. 1.04 ×10⁻⁶ cm/s
